Where do the numbers come from? From PubChem BioAssay (NCI).

Listed here are compounds together with their documented TGI.
- Test system: CCRF-CEM leukemia
- MEASUREMENT_DESCRIPTION: NCI tumour cell line growth inhibition, 48 h

COMPOUND	TGI
CSC1(SC)N2Cc3ccccc3N=C2C1(c1ccccc1)c1ccccc1	> 65 µM
CN1CCC(C(=O)Nc2n[nH]c3nc(-c4ccc(O)cc4)c(Br)cc23)CC1	> 25 µM
Fc1cccc(CSc2ncnc3c2ncn3C2CCCS2)c1 (stereo unspecified)	46.6 µM
O=C(O)c1ccc2c3c(ncnc13)-c1ccccc1C2=O	> 100 µM
O=C1C(Cl)=C(Nc2cccc(O)c2)C(=O)N1Cc1ccc(Cl)cc1	> 100 µM
Cc1ccc(S(=O)(=O)C2c3nc4ccccc4cc3-c3nc4ccccc4nc32)cc1 (stereo unspecified)	> 100 µM
